compounds and their reported inhibition at 0.1 µM
- tested_target: Kv1.5 potassium channel (Homo sapiens)
- Construct: expressed in transfected cells
- Sequence (P22460 whole entry): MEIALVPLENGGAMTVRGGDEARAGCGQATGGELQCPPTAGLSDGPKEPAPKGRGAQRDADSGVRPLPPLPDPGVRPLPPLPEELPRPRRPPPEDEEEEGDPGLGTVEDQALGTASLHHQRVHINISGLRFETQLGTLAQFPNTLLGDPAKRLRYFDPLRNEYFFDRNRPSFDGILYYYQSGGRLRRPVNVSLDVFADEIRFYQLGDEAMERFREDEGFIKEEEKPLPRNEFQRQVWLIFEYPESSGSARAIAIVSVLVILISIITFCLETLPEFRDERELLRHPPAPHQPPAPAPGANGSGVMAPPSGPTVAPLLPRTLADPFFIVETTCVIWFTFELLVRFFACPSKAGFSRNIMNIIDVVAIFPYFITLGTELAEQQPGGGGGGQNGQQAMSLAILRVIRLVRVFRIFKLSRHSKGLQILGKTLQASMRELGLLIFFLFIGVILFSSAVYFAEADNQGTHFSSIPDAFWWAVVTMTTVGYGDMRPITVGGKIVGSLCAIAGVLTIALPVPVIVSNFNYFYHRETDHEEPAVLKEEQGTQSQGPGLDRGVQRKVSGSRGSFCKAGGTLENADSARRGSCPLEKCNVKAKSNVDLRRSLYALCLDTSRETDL
- assay_name: Whole-cell patch clamp electrophysiological recording of Kv1.5 currents in CHO cells
- Type: cell-based
- conditions_used: CHO cells stably expressing Kv1.5, whole-cell voltage clamp, holding potential −80 mV, one depolarization every 10 seconds, read-out: Peak Current Inhibition at 0.1 μM (%)
Note: unit % is implicit; provide only the numeric part.

Would you please look over these solved cases?
Cc1cccc(CN(C(=O)[C@@H]2C[C@H]2c2ccccc2)c2ccc3c(c2)[C@@H](NS(=O)(=O)c2ccc(F)cc2)CCC3)n1; 45
Cn1ccnc1CN(C(=O)[C@@H]1C[C@H]1c1ccc(F)cc1)c1ccc2c(c1)[C@@H](NS(=O)(=O)c1ccccc1F)CCC2; 68
Cn1ccnc1CN(C(=O)[C@@H]1C[C@H]1c1ccc(C(F)(F)F)cc1)c1ccc2c(c1)[C@@H](NS(=O)(=O)c1ccccc1F)CCC2; 47

Notebook: `Cn1ccnc1CN(C(=O)[C@H]1C[C@@H]1c1ccc(Cl)cc1)c1ccc2c(c1)[C@H](NS(=O)(=O)c1ccccc1)CCC2` , inhibition at 0.1 µM read as 57

inhibition at 0.1 µM reading for `Cc1cccc(CN(C(=O)[C@@H]2C[C@H]2c2ccccc2)c2ccc3c(c2)[C@@H](NS(=O)(=O)c2ccccc2)CCC3)n1` : 57

Sure, the documented inhibition at 0.1 µM for Cc1cccc(CN(C(=O)C2CC2c2ccccc2)c2ccc3c(c2)C(NS(=O)(=O)c2ccc(F)cc2)CCC3)n1 (centres unmarked) is 24

Query `Cn1ccnc1CN(C(=O)[C@@H]1C[C@H]1c1ccc(F)cc1)c1ccc2c(c1)[C@@H](NS(=O)(=O)c1cccc(F)c1)CCC2` yields inhibition at 0.1 µM of 80

// inhibition at 0.1 µM value for `CCc1ccc(S(=O)(=O)N[C@H]2CCCc3ccc(N(Cc4nccn4C)C(=O)[C@@H]4C[C@H]4c4ccc(Cl)cc4)cc32)cc1` : 70

Note to self: inhibition at 0.1 µM recorded for `Cn1ccnc1CN(C(=O)[C@H]1C[C@@H]1c1ccc(Cl)cc1)c1ccc2c(c1)[C@@H](NS(=O)(=O)c1ccc(F)cc1)CCC2` was 35

# inhibition at 0.1 µM (compound: Cc1ncc(CN(C(=O)C2CC2c2ccccc2)c2ccc3c(c2)C(NS(=O)(=O)c2ccc(F)cc2)CCC3)n1CC(C)C (centres unmarked) ) is 39

What the record says about `Cn1ccnc1CN(C(=O)[C@@H]1C[C@H]1c1ccc(F)cc1)c1ccc2c(c1)[C@@H](NS(=O)(=O)c1ccc(F)cc1)CCC2` : inhibition at 0.1 µM is 70

inhibition at 0.1 µM in this record for `Cc1cccc(CN(C(=O)[C@@H]2C[C@H]2c2ccc(C(F)(F)F)cc2)c2ccc3c(c2)[C@@H](NS(=O)(=O)c2ccccc2F)CCC3)n1` : 50

Reported inhibition at 0.1 µM of `Cn1ccnc1CN(C(=O)[C@@H]1C[C@H]1c1ccc(Cl)cc1)c1ccc2c(c1)[C@@H](NS(=O)(=O)c1ccccc1)CCC2` : 71

GET /value?item= Cc1cccc(CN(C(=O)C2CC2c2ccccc2)c2ccc3c(c2)C(NS(=O)(=O)c2ccccc2Cl)CCC3)n1 (centres unmarked) &field=inhibition at 0.1 µM returns 60

Just for reference, patent US6620849B2 is where these values come from.
